% inhibition of gametocyte viability values for the molecules below.
# Tested on: Plasmodium falciparum NF54 stage IV/V gametocytes
# protocol summary: % inhibition of gametocyte viability (luciferase reporter); higher = more inhibition
# recorded conditions: 1 µM; 48 h
Express your answer in %, writing the number without its unit.

Below, each entry is followed by its recorded % inhibition of gametocyte viability result.
# molecule, unit text, % inhibition of gametocyte viability
rows = [
    ("NC(=O)C(c1ccccc1)(c1ccccc1)[C@H]1CCCN(CCc2ccc3c(c2)CCO3)C1", "%", 12),
    ("CN(C)CCCOc1ccc(-c2ccc3ncc4c(c3c2)n(C2CCOCC2)c(=O)n4C)cn1", "%", 78.1),
    ("CC(=O)N[C@H](C)C(=O)N[C@H](Cc1ccccc1)C(=O)O", "%", 17.2),
    ("C[C@H](Cn1cnc2c(N)ncnc21)OCP(=O)(O)O", "%", 9.2),
    ("CCN(CC)CCCC(C)Nc1ccnc2cc(Cl)ccc12 (stereo unspecified)", "%", 29.7),
]

# context switch: different molecule, same % inhibition of gametocyte viability
Quick note, % inhibition of gametocyte viability for CC(=O)Oc1ccccc1C(=O)Nc1ncc([N+](=O)[O-])s1 landed at 0.222

---

# Test system: Plasmodium falciparum NF54 stage IV/V gametocytes
# protocol summary: % inhibition of gametocyte viability (PrestoBlue); higher = more inhibition
# recorded conditions: 5 µM; 48 h
parameter measured: % inhibition of gametocyte viability (%)
Express your answer in %, writing the number without its unit.

Below, each entry is followed by its recorded % inhibition of gametocyte viability result.
# compound, target under test, unit text, measured result
data = [
    ("O=C(Cc1ccccc1F)Nc1nc2ccccc2[nH]1", "Plasmodium falciparum NF54 stage IV/V gametocytes", "%", 21.8),
    ("CCC(C)(C)c1ccc(CC(C)CN2C[C@@H](C)O[C@@H](C)C2)cc1 (some centres not stated)", "Plasmodium falciparum NF54 stage IV/V gametocytes", "%", 4.53),
]

Quick note, % inhibition of gametocyte viability for C[C@H](Cn1cnc2c(N)ncnc21)OCP(=O)(O)O landed at 17.7

Quick note, % inhibition of gametocyte viability for Cc1ncc([N+](=O)[O-])n1CC(C)O (configuration not stated) landed at 28.2

Quick note, % inhibition of gametocyte viability for O=C(Nc1ccc(F)cc1)c1nn(-c2ccccc2)c(=O)cc1Cl landed at 81

Quick note, % inhibition of gametocyte viability for Cn1c2ccccc2c(=O)c2c(O)cccc21 landed at 21.6

Quick note, % inhibition of gametocyte viability for C[C@H]1[C@@H](c2cccc(C(F)(F)F)c2)OC(=O)N1C(=O)NCc1cncc2ccccc12 landed at 27.7

Quick note, % inhibition of gametocyte viability for COc1ccc2c(c1)cc(CNC(=O)c1cc3ccccc3o1)n2CC(=O)O landed at 26

Quick note, % inhibition of gametocyte viability for CC(C)Cn1c(=O)n(C)c(=O)c2c(-c3cncn3C)n(Cc3cccc4ccccc34)nc21 landed at 22.5

Quick note, % inhibition of gametocyte viability for O=C(NCc1cccc2ccccc12)c1cccs1 landed at 24.3

Quick note, % inhibition of gametocyte viability for C[C@H](c1cccc2ccccc12)N(C)Cc1ccccc1 landed at 7.59

Quick note, % inhibition of gametocyte viability for CCc1oc2ccccc2c1C(=O)c1ccc(O)cc1 landed at 17.5

Quick note, % inhibition of gametocyte viability for Nc1cc(-c2nc3ccccc3[nH]2)n[nH]c1=O landed at 78.8

Quick note, % inhibition of gametocyte viability for O=[N+]([O-])/C(Br)=C/c1ccc(Br)o1 landed at 57

Quick note, % inhibition of gametocyte viability for C=C[C@]1(C)C[C@@H](OC(=O)CS[C@@H]2C[C@H]3CC[C@@H](C2)N3C)[C@]2(C)[C@H](C)CC[C@]3(CCC(=O)[C@H]32)[C@@H](C)[C@@H]1O landed at 2.51

Quick note, % inhibition of gametocyte viability for CCN(CC)CCCC(C)Nc1ccnc2cc(Cl)ccc12 (configuration not stated) landed at 6

Quick note, % inhibition of gametocyte viability for Nc1nc(N)c2c(Sc3ccccc3)cccc2n1 landed at 4.25

Quick note, % inhibition of gametocyte viability for Nc1nc(O)c2ncn(COCCO)c2n1 landed at 15.7
